tested on: Bacillus subtilis; test: Antibacterial activity against Bacillus subtilis NCTC 8326 at 50 ug/disk; assay type: functional; conditions: read-out: IZ
Below, each entry is listed with its recorded zone of inhibition at 50 µg/disc.
Numbers only; they are read as mm.

Check out these entries, answers already filled in.
# molecule, target, zone of inhibition at 50 µg/disc [mm]
measured = [
    ("CCCCCCCCCCCCCCCC1CC(=O)NCCCNCCCCN(C)CCCN1C (stereo not given)", "Bacillus subtilis", 10),
    ("CCCCCCCCCC(O)CCCCCC1CC(=O)NCCCN(C)CCCCN(C)CCCN1C (stereo not given)", "Bacillus subtilis", 8),
    ("CCCCCCCCCCCCCCCC1CC(=O)NCCCN(C)CCCCN(C)CCCN1 (stereo not given)", "Bacillus subtilis", 11),
    ("CCCCCCCCCCCCCC1CC(=O)NCCCN(C)CCCCN(C)CCCN1 (stereo not given) [BUDMUNCHIAMINE G]", "Bacillus subtilis", 12),
]

Now, please, on to the next molecule.
Exercise: What zone of inhibition at 50 µg/disc value was documented for this molecule, CCCCCCCC(O)CCCCCC1CC(=O)NCCCN(C)CCCCN(C)CCCN1C (stereo not given) ?
Key: 8

###

Below, each entry is listed with its recorded LC50.
experiment: Toxicity against brine shrimp; type: organism-based; details: artemia, in vivo
I'd appreciate it if you included the unit after the number.

Exercise: What LC50 value was documented for this compound, CCCCCCCCCC(O)CCCCCC1CC(=O)NCCCN(C)CCCCN(C)CCCN1 (centres undefined) ?
Key: 60.4 µg/mL

Exercise: What LC50 value was documented for this compound, CCCCCCCCCCCCCCCC1CC(=O)NCCCN(C)CCCCN(C)CCCN1 (centres undefined) ?
Key: 16.5 µg/mL

Exercise: What LC50 value was documented for this compound, CCCCCCCCCCCCCCCC1CC(=O)NCCCN(C)CCCCN(C)CCCN1C (centres undefined) ?
Key: 6.6 µg/mL

###

system: Bacillus subtilis; test: Antibacterial activity against Bacillus subtilis NCTC 8326; type: functional
Cut-off 20 µg/mL on MIC: below means criterion met, at or above means criterion not met.

Examples with answers:
# molecule, label.value
rows = [
    ("O=C(N[C@H](CO)[C@H](O)c1ccc([N+](=O)[O-])cc1)C(Cl)Cl", "criterion met"),
    ("CCCCCCCCCCCCCC1CC(=O)NCCCN(C)CCCCN(C)CCCN1 (configuration not stated)", "criterion not met"),
    ("CCCCCCCCCCCC1CC(=O)NCCCN(C)CCCCN(C)CCCN1C (configuration not stated)", "criterion met"),
    ("CCCCCCCC(O)CCCCCC1CC(=O)NCCCN(C)CCCCN(C)CCCN1C (configuration not stated)", "criterion not met"),
    ("CCCCCCCCCCCCCCCC1CC(=O)NCCCN(C)CCCCN(C)CCCN1C (configuration not stated)", "criterion met"),
]

Alright, here's another molecule for you.
Exercise: Regarding CCCCCCCCCC(O)CCCCCC1CC(=O)NCCCN(C)CCCCN(C)CCCN1C (configuration not stated) , kindly confirm whether its MIC is beneath 20 µg/mL.
Key: criterion not met

###

Below, each entry is listed with its recorded MIC.
system: Pseudomonas aeruginosa; test: Antibacterial activity against Pseudomonas aeruginosa NCTC 6750; type: functional
I'd appreciate it if you included the unit after the number.

Check out these entries, answers already filled in.
# compound, target, quantity, observed
rows = [
    ("CCCCCCCCCCCC1CC(=O)NCCCN(C)CCCCN(C)CCCN1C (configuration not stated)", "Pseudomonas aeruginosa", "MIC", "30 µg/mL"),
    ("CCCCCCCCCC(O)CCCCCC1CC(=O)NCCCN(C)CCCCN(C)CCCN1C (configuration not stated)", "Pseudomonas aeruginosa", "MIC", "75 µg/mL"),
    ("CCCCCCCC(O)CCCCCC1CC(=O)NCCCN(C)CCCCN(C)CCCN1C (configuration not stated)", "Pseudomonas aeruginosa", "MIC", "84 µg/mL"),
    ("CCCCCCCCCCCCCCCC1CC(=O)NCCCN(C)CCCCN(C)CCCN1C (configuration not stated)", "Pseudomonas aeruginosa", "MIC", "28 µg/mL"),
    ("CCCCCCCCCCCCCC1CC(=O)NCCCN(C)CCCCN(C)CCCN1 (configuration not stated)", "Pseudomonas aeruginosa", "MIC", "35 µg/mL"),
]

Exercise: Param readout= MIC; system= Pseudomonas aeruginosa; entry= CCCCCCCCCCCCCCCC1CC(=O)NCCCN(C)CCCCN(C)CCCN1 (configuration not stated) ; returns value.
Key: 32 µg/mL

Exercise: Param readout= MIC; system= Pseudomonas aeruginosa; entry= `O=C(N[C@H](CO)[C@H](O)c1ccc([N+](=O)[O-])cc1)C(Cl)Cl` ; returns value.
Key: 26 µg/mL
